Attribution: patent US8304391B2

# targetOrSystem: human EPO-R (Homo sapiens, UniProt P19235)
# Construct: expressed in transfected cells; host or cells: murine pre-B-cell line Baf3 (BaF3/Gal4/Elk/EPOR)
# Sequence (P19235 25-508): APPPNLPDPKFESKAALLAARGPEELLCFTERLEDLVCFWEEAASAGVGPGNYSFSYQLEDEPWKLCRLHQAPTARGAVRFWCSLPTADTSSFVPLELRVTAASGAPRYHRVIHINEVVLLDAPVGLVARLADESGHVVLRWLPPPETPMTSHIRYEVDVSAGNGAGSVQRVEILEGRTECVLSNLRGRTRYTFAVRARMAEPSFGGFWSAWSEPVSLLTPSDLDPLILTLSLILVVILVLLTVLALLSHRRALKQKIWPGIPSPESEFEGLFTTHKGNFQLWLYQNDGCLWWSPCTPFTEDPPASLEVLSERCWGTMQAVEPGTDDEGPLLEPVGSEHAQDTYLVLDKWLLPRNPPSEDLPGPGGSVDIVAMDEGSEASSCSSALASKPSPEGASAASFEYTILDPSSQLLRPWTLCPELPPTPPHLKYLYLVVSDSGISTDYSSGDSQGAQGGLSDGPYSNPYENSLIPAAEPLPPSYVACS
# assayText: Proliferation assay (BaF3/Gal4/Elk/EPOR cells, MTT)
# Assay type: cell-based
# conditionInfo: 48 h
Bridges are numbered along the chain shown (N, C = ends). Roman numbers before positions name the chains, in order. Where no end group is shown, it is not given here. [ ]: non-standard residue; d: D form. The star is where a group is joined. ξ: configuration not given here. 1Nal = N[C@@H](Cc1cccc2ccccc12)C(=O)O; NH(CH2CH2O)2CH2CH2NH2 = NCCOCCOCCN*; hSer = N[C@@H](CCO)C(=O)O; ξK = NCCCCC(N)C(=O)O; Sar = CNCC(=O)O
The reader will find reported EC50 values listed item by item below.
measureName: EC50 (nM)

I: GGLYACHMGPITWVCQPLRGK-NH2 / II: GGLYACHMGPITWVCQPLRG (disulfide I:6-I:15, II:6-II:15; amide I:21-II:C) [AF32579] | 0.142
I: Ac-GGLYACHMGPIT[1Nal]VCQPLR[Sar][ξK]-{NH(CH2CH2O)2CH2CH2NH2} / II: Ac-GGLYACHMGPIT[1Nal]VCQPLR[Sar] (disulfide I:6-I:15, II:6-II:15; amide I:21-II:C) [AF35525] | 0.057
I: GGLYACHMGPIT[1Nal]VCQPLR[Sar]K-NH2 / II: GGLYACHMGPIT[1Nal]VCQPLR[Sar] (disulfide I:6-I:15, II:6-II:15; amide I:21-II:C) [AF34994] | 0.17
I: GGLYACH[hSer](Me)GPITWVCQPLR[Sar]K-NH2 / II: GGLYACH[hSer](Me)GPITWVCQPLR[Sar] (disulfide I:6-I:15, II:6-II:15; amide I:21-II:C) [AF35090] | 0.19
I: Ac-GGLYACH[hSer](Me)GPIT[1Nal]VCQPLR[Sar][ξK]-{NH(CH2CH2O)2CH2CH2NH2} / II: Ac-GGLYACH[hSer](Me)GPIT[1Nal]VCQPLR[Sar] (disulfide I:6-I:15, II:6-II:15; amide I:21-II:C) [AF35149] | 0.057
